Data origin: patent US7355047B2

System: GABAA receptor complex (GRC)
Experiment: [35S]TBPS binding assay, rat cortex
Conditions: 10 μM compound; 2 nM [35S]TBPS; rat cortex; plain numbers = inhibition
readout.kind: % Inhibition of 2 nM TBPS in Rat Cortex at 10 μM (%)

In [3]: df
Out[3]:
                                   compound                  assay_target  experimental_value
0  CCn1cc(C(=O)O)c(=O)c2cc(NCC(C)c3ccccc3)c(Cl)cc21 (stereo not shown)  GABAA receptor complex (GRC)                  65
1  CCCNC(=O)c1cn(CC)c2cc(Cl)c(NC3CCCc4ccccc43)cc2c1=O (stereo not shown)  GABAA receptor complex (GRC)                  86
2  CCn1cc(C(=O)O)c(=O)c2cc(NC(C)CCc3ccccc3)c(Cl)cc21 (stereo not shown)  GABAA receptor complex (GRC)                  84
3  CCn1cc(C(=O)O)c(=O)c2cc(NC3CCCc4ccccc43)c(Cl)cc21 (stereo not shown) [drawing 15]  GABAA receptor complex (GRC)                  70
